# IC50 listing for each entry below
# study_target: Human HDAC5 (Homo sapiens, UniProt Q9UQL6)
# Construct: full length with C-terminal His tag, MW=51.1 kDa; His (C); host or cells: baculovirus expression system
# Sequence (Q9UQL6 656-1122 limits assumed): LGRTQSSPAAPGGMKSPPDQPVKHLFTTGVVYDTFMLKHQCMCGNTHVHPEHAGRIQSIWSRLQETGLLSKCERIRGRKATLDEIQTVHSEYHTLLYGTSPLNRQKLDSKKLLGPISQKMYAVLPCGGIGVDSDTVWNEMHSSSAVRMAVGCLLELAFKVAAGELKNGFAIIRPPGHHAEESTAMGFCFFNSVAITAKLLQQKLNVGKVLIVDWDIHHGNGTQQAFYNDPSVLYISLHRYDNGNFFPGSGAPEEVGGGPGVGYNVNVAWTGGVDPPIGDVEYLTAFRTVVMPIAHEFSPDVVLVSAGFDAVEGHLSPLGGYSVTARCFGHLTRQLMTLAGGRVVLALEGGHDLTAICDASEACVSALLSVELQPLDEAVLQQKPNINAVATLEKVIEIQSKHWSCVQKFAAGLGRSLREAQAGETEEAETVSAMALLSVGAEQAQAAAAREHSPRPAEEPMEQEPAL
# experiment_description: HDAC5 biochemical assay, class IIa-specific substrate
# conditions_used: read-out: HDAC Isoform IC50 (nM) 5
measurement_label: IC50

O=C(c1cnnc(N(Cc2ccc(-c3noc(C(F)(F)F)n3)s2)c2cnccn2)c1)N1CC(F)(F)C1 | ≤ 1000 nM
FC(F)(F)c1nc(-c2ccc(CN(c3cnccn3)c3cc(-c4ccccn4)cnn3)s2)no1 | ≤ 10000 nM
CS(=O)(=O)c1ccc(N(Cc2ccc(-c3noc(C(F)(F)F)n3)s2)c2cnccn2)nn1 | ≤ 500 nM
FC(F)(F)c1ccnc(N(Cc2ccc(-c3noc(C(F)(F)F)n3)s2)c2cnccn2)c1 | ≤ 10000 nM
FC(F)(F)c1nc(-c2ccc(CN(c3cnccn3)c3nccnn3)s2)no1 | ≤ 1000 nM
N#Cc1cnnc(N(Cc2ccc(-c3noc(C(F)(F)F)n3)s2)c2cnccn2)c1 | ≤ 1000 nM
FC(F)(F)c1cnnc(N(Cc2ccc(-c3noc(C(F)(F)F)n3)s2)c2ccc(C(F)(F)F)nn2)c1 | ≤ 10000 nM
OC1(c2cnnc(N(Cc3ccc(-c4noc(C(F)(F)F)n4)s3)c3cnccn3)c2)COC1 | ≤ 10000 nM
Cc1cnnc(N(Cc2ccc(-c3noc(C(F)(F)F)n3)s2)c2cnccn2)c1 | ≤ 1000 nM
COC1CN(C(=O)c2cnnc(N(Cc3ccc(-c4noc(C(F)(F)F)n4)s3)c3cnccn3)c2)C1 | ≤ 1000 nM
FC(F)(F)c1cncc(N(Cc2ccc(-c3noc(C(F)(F)F)n3)s2)c2cnccn2)c1 | ≤ 1000 nM
FC(F)(F)c1nc(-c2ccc(CN(c3ccncn3)c3cnccn3)s2)no1 | ≤ 500 nM
FC(F)(F)c1nccc(N(Cc2ccc(-c3noc(C(F)(F)F)n3)s2)c2cnccn2)n1 | ≤ 1000 nM
CS(=O)(=O)c1nccc(N(Cc2ccc(-c3noc(C(F)(F)F)n3)s2)c2cnccn2)n1 | ≤ 1000 nM
[O-][S+]1CCN(Cc2ccc(N(Cc3ccc(-c4noc(C(F)(F)F)n4)s3)c3cnccn3)nn2)CC1 | ≤ 1000 nM
FC(F)(F)c1nc(-c2ccc(CN(c3cnccn3)c3ncccc3N3CCOCC3)s2)no1 | ≤ 10000 nM

* * *

# study_target: Human HDAC5 (Homo sapiens)
# Construct: full length with C-terminal His tag, MW=51.1 kDa; His (C); host or cells: baculovirus expression system
# experiment_description: HDAC5 biochemical assay, class IIa-specific substrate
# conditions_used: read-out: HDAC Isoform IC50 (nM) 5
measurement_label: IC50

FC(F)(F)c1ccc(N(Cc2ccc(-c3noc(C(F)(F)F)n3)s2)c2cnccn2)nn1 [Example DH] | ≤ 1000 nM
O=C(c1ccc(N(Cc2ccc(-c3noc(C(F)(F)F)n3)s2)c2cnccn2)nn1)N1C[C@@H]2C[C@H]1C[S@@+]2[O-] [Example FR] | ≤ 500 nM
O=C(c1cnnc(N(Cc2ccc(-c3noc(C(F)(F)F)n3)s2)c2cnccn2)c1)N1CC(O)(C(F)(F)F)C1 [Example GD] | ≤ 1000 nM
COc1cncc(N(Cc2ccc(-c3noc(C(F)(F)F)n3)s2)c2cncc(OC)n2)n1 [Example BY] | ≤ 10000 nM
O=C(c1ccc(N(Cc2ccc(-c3noc(C(F)(F)F)n3)s2)c2cnccn2)nn1)N1C[C@@H]2C[C@H]1CO2 [Example FE] | ≤ 500 nM
Cc1ncc(N(Cc2ccc(-c3noc(C(F)(F)F)n3)s2)c2cnccn2)cn1 [Example CS] | ≤ 1000 nM
Cc1cnc(N(Cc2ccc(-c3noc(C(F)(F)F)n3)s2)c2cnccn2)c(C)n1 [Example BV] | ≤ 500 nM
O=C(c1cnnc(N(Cc2ccc(-c3noc(C(F)(F)F)n3)s2)c2cnccn2)c1)N1C[C@H]2C[C@@H]1CO2 [Example FW] | ≤ 1000 nM
FC(F)(F)c1nc(-c2ccc(CN(c3ccc(N4CCOCC4)cn3)c3cnccn3)s2)no1 [Example AD] | ≤ 10000 nM
COc1nccnc1N(Cc1ccc(-c2noc(C(F)(F)F)n2)s1)c1cnccn1 [Example BF] | ≤ 10000 nM
O=C(O)c1cnnc(N(Cc2ccc(-c3noc(C(F)(F)F)n3)s2)c2cnccn2)c1 [Example DW] | ≤ 10000 nM
FC(F)(F)c1cnnc(N(Cc2ccc(-c3noc(C(F)(F)F)n3)s2)c2cncnc2)c1 [Example EQ] | ≤ 10000 nM
FC(F)(F)c1nc(-c2ccc(CN(c3ccc(C4CC4)cn3)c3cnccn3)s2)no1 [Example AA] | ≤ 10000 nM
O=C(c1ccc(N(Cc2ccc(-c3noc(C(F)(F)F)n3)s2)c2cnccn2)nn1)N1CC[S+]([O-])CC1 [Example FD] | ≤ 500 nM
FC(F)(F)c1nc(-c2ccc(CN(c3cnccn3)c3nccc4cnccc34)s2)no1 [Example AK] | ≤ 500 nM
NC(=O)c1nccnc1N(Cc1ccc(-c2noc(C(F)(F)F)n2)s1)c1cnccn1 [Example GO] | ≤ 10000 nM

Measured values drawn from patent US20210038607A1 for this set.
